# Assay explanation: Inhibition of recombinant full length Aedes aegypti AChE1 expressed in baculovirus-infected Sf9 insect cells using acetylthiocholine iodide as substrate measured over 60 secs by Ellman's method
Metric: pIC50
Note: pIC50 values are expressed as the negative base-10 logarithm of concentration in M.

| Compound structure string | pIC50 |
| --- | --- |
| CN(C)CCNC(=S)Nc1ccccc1Cl | 4.85 |

Consider the record given below.
Query string: Given the compound `S=C(NCCN1CCOCC1)Nc1cccc(Cl)c1` , write its reported pIC50.
Result string: 4.28

* * *

# Target or test system: Acetylcholinesterase (Anopheles gambiae, UniProt Q869C3)
# Sequence (Q869C3 whole entry): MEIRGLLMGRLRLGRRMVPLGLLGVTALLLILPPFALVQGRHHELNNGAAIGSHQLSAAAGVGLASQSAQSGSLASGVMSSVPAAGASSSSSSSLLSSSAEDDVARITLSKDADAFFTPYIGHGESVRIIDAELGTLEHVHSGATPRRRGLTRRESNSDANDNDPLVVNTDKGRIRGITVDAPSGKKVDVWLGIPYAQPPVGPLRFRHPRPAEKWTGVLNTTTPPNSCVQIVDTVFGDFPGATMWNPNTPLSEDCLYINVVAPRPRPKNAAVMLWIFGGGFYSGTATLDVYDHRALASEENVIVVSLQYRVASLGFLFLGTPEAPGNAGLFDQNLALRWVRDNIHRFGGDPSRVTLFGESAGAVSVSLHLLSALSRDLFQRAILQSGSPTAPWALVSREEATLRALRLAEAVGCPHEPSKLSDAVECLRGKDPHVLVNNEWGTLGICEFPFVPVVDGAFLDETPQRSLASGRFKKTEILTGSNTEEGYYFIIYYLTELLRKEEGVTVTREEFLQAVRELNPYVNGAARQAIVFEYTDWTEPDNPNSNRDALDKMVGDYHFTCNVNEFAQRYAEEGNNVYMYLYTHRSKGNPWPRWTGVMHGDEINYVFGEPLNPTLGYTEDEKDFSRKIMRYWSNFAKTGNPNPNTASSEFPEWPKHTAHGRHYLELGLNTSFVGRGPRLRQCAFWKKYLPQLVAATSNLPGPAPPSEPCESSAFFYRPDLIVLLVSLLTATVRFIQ
# Assay explanation: Inhibition of recombinant full length Anopheles gambiae AChE1 expressed in baculovirus-infected Sf9 insect cells using acetylthiocholine iodide as substrate measured over 60 secs by Ellman's method
Checkbox rule: IC50 lower than 30 µM = Fulfilled; IC50 not lower than 30 µM = Not fulfilled.

Field: example entries. Status: answers known.
| Compound structure string | Target or test system | Group |
| --- | --- | --- |
| COc1ccc(NC(=S)NCCN(C)C)cc1Cl | Acetylcholinesterase (Anopheles gambiae, UniProt Q869C3) | Fulfilled |
| S=C(NCCN1CCOCC1)Nc1cccc(Cl)c1 | Acetylcholinesterase (Anopheles gambiae, UniProt Q869C3) | Not fulfilled |
| COc1ccc(NC(=S)NCCN2CCCCC2)cc1 | Acetylcholinesterase (Anopheles gambiae, UniProt Q869C3) | Fulfilled |

Query string: Threshold test, IC50 < 30 µM: `COc1ccc(NC(S)=NCCN2CCC(C)CC2)cc1Cl`
Result string: Fulfilled

Query string: Please let me know if `CN(C)CC/N=C(/S)Nc1ccc(S(N)(=O)=O)cc1` shows IC50 below 30 µM.
Result string: Not fulfilled

Query string: Does the reported IC50 of the following molecule sit strictly below 30 µM? `NS(=O)(=O)c1ccc(NC(=S)NCCN2CCOCC2)cc1`
Result string: Not fulfilled

meta.source: ChEMBL document CHEMBL4033657
